# Assay text: Binding affinity to amyloid beta (1 to 42) oligomers by change in fluorescence at 100 uM after 10 mins
Activity calls are given as the source filed them. How the calls were made is not given here.
Labels: yes for active, no for inactive

>>> category_label("CN(C)c1ccc(N=Nc2ccccc2C(=O)O)cc1")
"no"
>>> category_label("O=Cc1c[nH]c2ccccc12")
"no"
>>> category_label("CC(Cc1ccc(O)c(O)c1)C(C)Cc1ccc(O)c(O)c1 (configuration not stated)")
"no"
>>> category_label("NCCc1ccc(O)c(O)c1")
"no"
>>> category_label("O=c1cc2oc3cc(O)c(-c4ccc(O)cc4O)cc3nc-2cc1-c1ccc(O)cc1O")
"no"
>>> category_label("COc1cc(/C=C/C(=O)CC(=O)/C=C/c2ccc(O)c(OC)c2)ccc1O")
"no"
>>> category_label("COc1cc(/C=C/C(=O)O)ccc1O")
"yes"

---

# Assay text: Binding affinity to amyloid beta (1 to 42) fibrils by change in fluorescence at 100 uM after 10 mins
Active and inactive are the calls of the source. No rule for the calls is given here.
Possible outcomes: 1 = active, 0 = inactive

>>> category_label("NCCc1ccc(O)c(O)c1")
0
>>> category_label("COc1cc(/C=C/C(=O)c2cccc(N)c2)ccc1O")
0
>>> category_label("Oc1ccc(Cc2ccc(O)cc2)cc1")
0
>>> category_label("CN(C)c1ccc(N=Nc2ccccc2C(=O)O)cc1")
0
>>> category_label("O=C(c1ccc(O)cc1)c1ccc(O)cc1")
0
>>> category_label("Oc1cc(O)c2c(c1)O[C@H](c1ccc(O)c(O)c1)[C@@H](O)C2")
0
>>> category_label("Oc1ccc(/C=C/c2cc(O)cc(O)c2)cc1")
1

---

# Assay text: Binding affinity to amyloid beta (1 to 42) fibrils by change in fluorescence at 100 uM after 10 mins
Calls of active or inactive are those of the source. The rule behind the calls is not given here.
Labels: True (active), False (inactive)

>>> category_label("C=C1c2c(Cl)ccc(O)c2C(=O)C2=C(O)[C@]3(O)C(=O)C(C(N)=O)=C(O)[C@@H](N(C)C)[C@@H]3[C@@H](O)[C@H]12.O=C(O)c1cc(S(=O)(=O)O)ccc1O")
"True"
>>> category_label("COc1cc(/C=C/C(=O)CC(=O)/C=C/c2ccc(O)c(OC)c2)ccc1O")
"False"
>>> category_label("O=c1cc2oc3cc(O)c(-c4ccc(O)cc4O)cc3nc-2cc1-c1ccc(O)cc1O")
"False"

---

# Assay text: Binding affinity to amyloid beta (1 to 42) oligomers by change in fluorescence at 100 uM after 10 mins
The source made the active and inactive calls. The rule behind the calls is not given here.
Outcomes: 1 = active, -1 = inactive

>>> category_label("O=c1oc2c(O)c(O)cc3c(=O)oc4c(O)c(O)cc1c4c23")
-1
>>> category_label("CN(C)c1ccc(O)c2c1C[C@H]1C[C@H]3[C@H](N(C)C)C(O)=C(C(N)=O)C(=O)[C@@]3(O)C(O)=C1C2=O")
-1
>>> category_label("O=S(=O)(O)c1cc(S(=O)(=O)O)c2c(/N=N/c3ccccc3)c(O)ccc2c1")
-1
>>> category_label("CN(C)c1ccc(N=Nc2ccccc2)cc1")
-1
>>> category_label("COc1ccc(C=O)cc1OC")
-1
>>> category_label("O=C(O)/C=C/c1cccc(O)c1")
-1
>>> category_label("O=S1(=O)OC(c2ccc(O)cc2)(c2ccc(O)cc2)c2ccccc21")
-1
>>> category_label("O=C(c1ccccc1O)c1ccccc1O")
-1
>>> category_label("COc1ccc(/C=C/c2ccc(/C=C/c3ccc(OC)c(OCc4ccccc4)c3)c(Br)c2)cc1OCc1ccccc1")
1
